molecular target: T1, Kallikrein related peptidase 2 (hK2), soluble human protein (human, UniProt P20151 19-261); experiment: SPR, antibody captured on anti-Fc chip, soluble hK2 injected, 1:1 Langmuir fit
T1 construct: the stated signal peptide (residues 1-18) is left out, the pro-peptide (19-24) is kept; also called KLK2; kallikrein-2
T1 sequence (P20151 19-261): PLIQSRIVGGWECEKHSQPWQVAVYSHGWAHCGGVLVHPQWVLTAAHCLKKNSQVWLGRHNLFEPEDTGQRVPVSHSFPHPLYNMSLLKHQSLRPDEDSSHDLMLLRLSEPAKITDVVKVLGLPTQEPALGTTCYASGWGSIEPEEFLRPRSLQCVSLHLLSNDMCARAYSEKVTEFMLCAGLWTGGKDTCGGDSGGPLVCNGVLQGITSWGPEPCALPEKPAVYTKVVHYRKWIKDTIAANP
pKd: −log10 of the molar value.
readout kind: pKd

1. KL2B467 (Fab) (Fab, V domains shown) VH: QVQLVESGGGVVQPGRSLRLSCAASGFTFSYYGMHWVRQAPGKGLEWVAFISYDGSNKYYADSVKGRFTISRDNSKNTLYLQMNSLRAEDTAVYYCAHLPYSGSYWAFDYWGQGTQVTVSS VL: QSVLTQPPSVSVAPGQTASITCGGDNIGSKSVHWYQQKPGQAPVLVVYDNSDRPSGIPERFSGSNSGTTATLTISRVEAGDEADYYCQVWDSSSDHPVVFGGGTKVTV ... 10.11

This collection of values is drawn from patent US20250325718A1.
